I'd appreciate it if you could supply log fold change Tl+ flux values for the items below.
- Test system: R275C/Slo1WT/beta2
- assayText: BK channel mutant inhibitors and activators – cell-based, U2OS BacMam, thallium flux, beta subunits, selectivity assay, profiling panel (AID 1259406);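 further: initial slope of Thallos dye fluorescence rise after thallium is added; log ratio against the mean of 0.3% DMSO vehicle wells on the same plate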
- conditionNotes: U2OS BacMam BK variants, at 30 µM
Give bare numbers.

O=C1N(c2ccccc2)c2ccccc2C1(Cc1ccncc1)Cc1ccncc1    -0.0252
Cn1nnc2c(C(N)=O)ncn2c1=O    0.06
Nc1nnc(-c2cccc(Cl)c2Cl)c(N)n1    -0.000749
CC(=O)NS(=O)(=O)c1ccc(N)cc1    0.00853
CCN1CCN(c2cc3c(cc2F)c(=O)c(C(=O)O)cn3C2CC2)CC1    0.165

Items follow; give log fold change Tl+ flux for each.
1. CC(=O)Nc1ccc(CC(=O)O)cc1
2. Nc1ccn([C@H]2CC[C@@H](CO)O2)c(=O)n1
3. COc1cc(C(=O)NS(=O)(=O)c2ccccc2C)ccc1Cc1cn(C)c2ccc(NC(=O)OC3CCCC3)cc12

1: -0.00738; 2: 0.0272; 3: 0.0699

Taken from PubChem BioAssay.
